Recorded values, source patent US8471005B2.

This section presents compounds with their documented pIC50 values.
TESTED_ON: ALK (Homo sapiens)
Construct: host or cells: baculovirus expression system
Sequence (Q9UM73 19-1620): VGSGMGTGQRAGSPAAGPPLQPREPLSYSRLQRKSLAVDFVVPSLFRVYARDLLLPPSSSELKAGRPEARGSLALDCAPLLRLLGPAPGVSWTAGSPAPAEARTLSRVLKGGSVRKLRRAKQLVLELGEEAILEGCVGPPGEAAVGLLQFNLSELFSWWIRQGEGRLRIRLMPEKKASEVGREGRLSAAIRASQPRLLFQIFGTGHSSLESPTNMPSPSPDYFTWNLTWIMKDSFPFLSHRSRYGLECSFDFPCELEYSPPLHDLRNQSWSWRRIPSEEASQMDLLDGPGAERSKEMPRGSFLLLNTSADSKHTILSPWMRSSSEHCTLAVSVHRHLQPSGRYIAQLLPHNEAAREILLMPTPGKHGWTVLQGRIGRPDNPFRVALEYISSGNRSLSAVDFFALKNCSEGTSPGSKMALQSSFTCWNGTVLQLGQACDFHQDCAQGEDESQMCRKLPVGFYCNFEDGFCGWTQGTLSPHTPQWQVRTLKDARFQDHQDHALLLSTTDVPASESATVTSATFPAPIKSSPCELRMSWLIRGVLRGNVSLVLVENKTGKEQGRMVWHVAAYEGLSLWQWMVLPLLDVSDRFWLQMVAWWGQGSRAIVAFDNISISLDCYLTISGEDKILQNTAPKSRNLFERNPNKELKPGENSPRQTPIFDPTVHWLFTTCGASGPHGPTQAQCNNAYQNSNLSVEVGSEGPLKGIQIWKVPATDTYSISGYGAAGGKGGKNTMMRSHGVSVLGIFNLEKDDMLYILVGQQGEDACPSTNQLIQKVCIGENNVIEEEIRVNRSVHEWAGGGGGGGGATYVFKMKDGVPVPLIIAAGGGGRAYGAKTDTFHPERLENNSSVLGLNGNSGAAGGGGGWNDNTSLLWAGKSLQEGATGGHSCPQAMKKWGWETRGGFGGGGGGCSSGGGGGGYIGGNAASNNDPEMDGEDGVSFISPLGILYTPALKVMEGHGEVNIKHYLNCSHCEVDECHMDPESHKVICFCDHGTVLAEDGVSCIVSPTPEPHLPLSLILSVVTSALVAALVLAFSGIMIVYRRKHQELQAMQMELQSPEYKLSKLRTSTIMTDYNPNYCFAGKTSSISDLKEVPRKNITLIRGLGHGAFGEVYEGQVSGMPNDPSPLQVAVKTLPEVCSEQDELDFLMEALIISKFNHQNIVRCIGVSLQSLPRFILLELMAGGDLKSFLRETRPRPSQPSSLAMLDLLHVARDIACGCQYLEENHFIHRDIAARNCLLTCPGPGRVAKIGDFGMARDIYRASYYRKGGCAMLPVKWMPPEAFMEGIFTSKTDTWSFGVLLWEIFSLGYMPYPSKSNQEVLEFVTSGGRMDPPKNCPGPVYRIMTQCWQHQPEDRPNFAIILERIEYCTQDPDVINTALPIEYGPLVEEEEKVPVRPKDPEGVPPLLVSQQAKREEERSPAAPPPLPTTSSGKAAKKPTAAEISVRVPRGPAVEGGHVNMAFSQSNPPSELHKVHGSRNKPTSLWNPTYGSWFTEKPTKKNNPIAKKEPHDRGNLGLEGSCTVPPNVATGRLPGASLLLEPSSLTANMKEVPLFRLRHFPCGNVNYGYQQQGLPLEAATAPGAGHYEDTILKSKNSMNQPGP
PROCEDURE_SUMMARY: ALK Kinase Assay (ELISA/TRF, PLC-γ substrate)
Assay type: biochemical
CONDITION_SUMMARY: ALK Kinase Inhibition; read-out: ALK Potency
pIC50: −log10 of the molar value.

CN(c1ccccc1-c1ccc2cnc(Nc3ccc4c(c3)NC(=O)C(C)(C)O4)nn12)S(C)(=O)=O [Example 1371] ... 6.00 to 7.00
CC(=O)c1ccccc1-c1ccc2cnc(Nc3ccc(N4CCN(C)CC4)cc3)nn12 [Example 402] ... 6.00 to 7.00
CN1CCN(c2ccc(Nc3ncc4ccc(CNc5ccccc5)n4n3)cc2)CC1 [Example 363] ... 5.00 to 6.00
COc1cc(N2CCC[C@H](C(=O)N3CCN(C)CC3)C2)ccc1Nc1ncc2ccc(-c3ccccc3OC)n2n1 [Example 461] ... > 7.00

GET /value?item= CN1CCN(c2ccc(Nc3ncc4ccc(-c5cccc(S(=O)(=O)N6CCCC6)c5)n4n3)cc2)CC1 [Example 367] &field=pIC50 returns 6.00 to 7.00

GET /value?item= c1cncc(-c2ccc3cnc(Nc4ccc(OCCN5CCOCC5)cc4)nn23)c1 [Example 125] &field=pIC50 returns 6.00 to 7.00

GET /value?item= c1ccc2c(c1)cc1cnc(Nc3ccc(N4CCOCC4)cc3)nn12 [Example 261] &field=pIC50 returns 6.00 to 7.00

GET /value?item= COc1cc(N2CCC(N3CCOCC3)CC2)ccc1Nc1ncc2ccc(-c3ccccc3N(C)S(C)(=O)=O)n2n1 [Example 1453] &field=pIC50 returns > 7.00

GET /value?item= COCc1ccccc1-c1ccc2cnc(Nc3ccc(N4CCN(C)CC4)cc3)nn12 [Example 1500] &field=pIC50 returns > 7.00

GET /value?item= COc1ccc(Cl)cc1-c1ccc2cnc(Nc3ccc(N4CCOCC4)cc3)nn12 [Example 3] &field=pIC50 returns 6.00 to 7.00

GET /value?item= COc1ccccc1-c1ccc2cnc(Nc3ccc(N4CCCC(CN5CCN(C)CC5)C4)cc3)nn12 (centres unmarked) [Example 456] &field=pIC50 returns > 7.00

GET /value?item= O=S(=O)(NC1CC1)c1cccc(-c2ccc3cnc(Nc4ccc(N5CCOCC5)cc4)nn23)c1 [Example 356] &field=pIC50 returns 6.00 to 7.00

----------
TESTED_ON: JAK2 (Homo sapiens, UniProt O60674)
Construct: host or cells: baculovirus expression system
Sequence (O60674 whole entry): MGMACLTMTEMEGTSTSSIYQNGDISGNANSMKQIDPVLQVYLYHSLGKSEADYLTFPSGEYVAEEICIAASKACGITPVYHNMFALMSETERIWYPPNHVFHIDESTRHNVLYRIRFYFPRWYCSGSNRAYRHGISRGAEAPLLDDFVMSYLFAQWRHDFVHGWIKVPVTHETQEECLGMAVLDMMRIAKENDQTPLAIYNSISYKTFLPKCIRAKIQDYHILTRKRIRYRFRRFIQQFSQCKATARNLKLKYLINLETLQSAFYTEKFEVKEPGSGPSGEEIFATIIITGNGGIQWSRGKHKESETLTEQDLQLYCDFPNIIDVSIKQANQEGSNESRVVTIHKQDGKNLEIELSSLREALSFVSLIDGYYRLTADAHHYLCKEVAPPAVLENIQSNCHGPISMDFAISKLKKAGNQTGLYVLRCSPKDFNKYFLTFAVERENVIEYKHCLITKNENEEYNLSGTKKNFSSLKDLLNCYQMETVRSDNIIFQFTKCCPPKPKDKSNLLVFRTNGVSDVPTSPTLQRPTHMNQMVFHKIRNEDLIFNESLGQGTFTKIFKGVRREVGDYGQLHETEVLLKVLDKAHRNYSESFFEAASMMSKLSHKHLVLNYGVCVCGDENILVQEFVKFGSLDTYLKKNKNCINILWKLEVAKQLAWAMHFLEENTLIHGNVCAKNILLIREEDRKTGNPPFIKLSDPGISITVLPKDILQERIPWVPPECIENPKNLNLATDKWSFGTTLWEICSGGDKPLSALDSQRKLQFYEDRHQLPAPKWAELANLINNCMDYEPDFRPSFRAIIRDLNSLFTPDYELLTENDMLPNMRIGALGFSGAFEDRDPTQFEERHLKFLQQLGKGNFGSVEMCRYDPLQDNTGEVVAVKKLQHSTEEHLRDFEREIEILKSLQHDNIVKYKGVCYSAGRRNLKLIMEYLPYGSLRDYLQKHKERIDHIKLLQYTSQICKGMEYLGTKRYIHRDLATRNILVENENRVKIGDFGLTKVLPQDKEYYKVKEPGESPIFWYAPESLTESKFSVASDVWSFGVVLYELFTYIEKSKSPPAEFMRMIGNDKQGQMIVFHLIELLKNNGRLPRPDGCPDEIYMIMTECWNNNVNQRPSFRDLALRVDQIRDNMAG
PROCEDURE_SUMMARY: Recombinant Human JAK2 Kinase Assay (TRF)
Type: biochemical
CONDITION_SUMMARY: JAK2 kinase inhibition, 0.2 μM ATP; read-out: JAK2 Potency
ENDPOINT_NAME: IC50

Recorded IC50, per entry:
COc1ccccc1-c1ccc2cnc(Nc3ccc4nn(CCN5CCOCC5)cc4c3)nn12 ... < 100 nM
COc1cc([C@@H]2CCNC[C@@H]2O)ccc1Nc1ncc2ccc(-c3ccccc3OC)n2n1 (racemic) ... 100 to 1000 nM
CC(C)(C)NS(=O)(=O)c1cccc(-c2ccc3cnc(Nc4ccc(C5CCN(CC(N)=O)CC5)cc4)nn23)c1 ... < 100 nM
CCN1CCCC(CC)(c2ccc(Nc3ncc4ccc(-c5ccccc5N(C)S(C)(=O)=O)n4n3)cc2)C1 (racemic) ... < 100 nM
CCN(CC)C1CCN(c2ccc(Nc3ncc4ccc(-c5cnn(C)c5)n4n3)cc2)CC1 ... < 100 nM
CN(c1ccccc1-c1ccc2cnc(Nc3cnn(CCN4CCOCC4)c3)nn12)S(C)(=O)=O ... < 100 nM

GET /value?item= COc1ccc(CN2CCOCC2)cc1Nc1ncc2ccc(-c3ccccc3OC)n2n1 &field=IC50 returns 100 to 1000 nM

GET /value?item= COc1ccccc1-c1ccc2cnc(Nc3ccc4c(c3)N(C)CCC4)nn12 &field=IC50 returns < 100 nM

GET /value?item= CC(C)(C)NS(=O)(=O)c1cccc(-c2ccc3cnc(Nc4ccc5nn(CCN6CCOCC6)cc5c4)nn23)c1 &field=IC50 returns < 100 nM

GET /value?item= CN1C2CCC1CC(c1ccc(Nc3ncc4ccc(-c5cccc(S(=O)(=O)NC(C)(C)C)c5)n4n3)cc1)C2 (stereo not drawn) &field=IC50 returns < 100 nM

GET /value?item= CCNC(=O)Nc1cccc(Nc2ncc3ccc(-c4ccc(OC)nc4)n3n2)c1 &field=IC50 returns < 100 nM

GET /value?item= O=S(=O)(c1cccc(-c2ccc3cnc(Nc4ccc(C5CCN(CCO)CC5)cc4)nn23)c1)N1CCOCC1 &field=IC50 returns < 100 nM
